For each record, write down the corresponding Emax.
# System Tested: μ-opioid receptors (Homo sapiens (Human))
# Assay Text: μ-opioid receptor [35S]GTPγS functional assay, U-2 OS cells
# Assay type: biochemical
# Protocol Conditions: μ GTP, relative to DAMGO, read-out: Activity Response μ Emax (%)
Express your answer as a number followed by its unit.

Summary: O=C(N[C@H]1C[C@@]2(O)[C@H]3Cc4ccc(O)cc4[C@@]2(CCN3CC2CC2)CC1=O)C1CCCC1 [Compound 35] , μ-opioid receptors (Homo sapiens (Human)), Emax = 2%

Fill in: μ-opioid receptors (Homo sapiens (Human)) Emax for COc1ccc2c(c1)[C@]13CCN(C)[C@H](C2)[C@]1(O)C[C@H](CCOCc1ccccc1)C(=O)C3 [Compound 50] = 102%

Simply: CC(C)[C@@H]1C[C@H]2[C@H]3Cc4ccc(O)cc4[C@@]2(CCN3CC2CC2)CC1=O [Compound 73] , μ-opioid receptors (Homo sapiens (Human)), Emax = 28.3%

Hey, μ-opioid receptors (Homo sapiens (Human)) data for CC(C)CCCC(=O)N[C@H]1C[C@@]2(O)[C@H]3Cc4ccc(O)cc4[C@@]2(CCN3CC2CC2)CC1=O [Compound 31] : Emax came out at 73.7%

Measured on μ-opioid receptors (Homo sapiens (Human)), CC(C)CCC(=O)N[C@H]1C[C@@]2(O)[C@H]3Cc4ccc(O)cc4[C@@]2(CCN3CC2CC2)CC1=O [Compound 30] has a documented Emax of 51%

Record CCC(=O)N[C@H]1C[C@@]2(O)[C@H]3Cc4ccc(O)cc4[C@@]2(CCN3CC2CC2)CC1=O [Compound 29] / μ-opioid receptors (Homo sapiens (Human)), Emax recorded as 7.25%

μ-opioid receptors (Homo sapiens (Human)) data for COc1ccc2c(c1)[C@]13CCN(C)[C@H](C2)[C@]1(O)C[C@H](CC(=O)N1CCOCC1)C(=O)C3 [Compound 79] ; its Emax: 60%

* * *

# System Tested: UniProtKB P35372
# Assay Text: μ-opioid receptor [35S]GTPγS functional assay, U-2 OS cells
# Type: biochemical
# Protocol Conditions: μ GTP, relative to DAMGO, read-out: Activity Response μ Emax (%)
Measure: Emax (%)
Unit % implied. Number only.

Reported UniProtKB P35372 Emax for item O=C(N[C@H]1C[C@@]2(O)[C@H]3Cc4ccc(O)cc4[C@@]2(CCN3CC2CC2)CC1=O)C1CCCCC1 [Compound 38] was 40.3

Record COc1ccc2c(c1)[C@]13CCN(CC4CC4)[C@H](C2)[C@]1(O)C[C@H](NC(=O)C(C)C)C(=O)C3 [Compound 26] ; system UniProtKB P35372; Emax = 31

Record COc1ccc2c(c1)[C@]13CCN(CC4CC4)[C@H](C2)[C@]1(O)C/C(=C\CC(C)C)C(=O)C3 [Compound 62] / UniProtKB P35372, Emax recorded as 27.5

The molecule O=C(N[C@H]1C[C@@]2(O)[C@H]3Cc4ccc(O)cc4[C@@]2(CCN3CC2CC2)CC1=O)c1ccccc1 [Compound 36] on UniProtKB P35372: Emax was 20.3

* * *

# System Tested: μ-opioid receptors (Homo sapiens (Human))
# Assay Text: μ-opioid receptor [35S]GTPγS functional assay, U-2 OS cells
# Assay type: biochemical
# Protocol Conditions: μ GTP, read-out: Activity Response μ EC50 (nM) [mean ± SEM]
Measure: EC50 (nM)
Report as a plain number; the unit nM is understood.

# compound O=C(N[C@H]1C[C@@]2(O)[C@H]3Cc4ccc(O)cc4[C@@]2(CCN3CC2CC2)CC1=O)C1CCCCC1 [Compound 38] ; its EC50 = 10.3

For CC(C)(C)C(=O)N[C@H]1C[C@@]2(O)[C@H]3Cc4ccc(O)cc4[C@@]2(CCN3CC2CC2)CC1=O [Compound 32] the compound record lists EC50 as 18.6

Recorded result, CN1CC[C@]23CC(=O)[C@@H](CC(=O)N4CCCCC4)C[C@@]2(O)[C@H]1Cc1ccc(O)cc13 [Compound 80] , EC50: 581

The origin of these recorded values is patent US9388162B2.
